subject.of.test: ABL1 (human)
protocol.details: radiometric filter-binding kinase assay
condition: compound 1.0 µM
parameter.measured: residual activity (%)

These recorded examples may help you get a feel for the data.
| compound | residual activity (%) |
| --- | --- |
| Cc1nc(-c2ccc(OCC(C)C)c(C#N)c2)sc1C(=O)O | 96 |
| c1ccc2c(-c3cnn4cc(-c5ccc(N6CCNCC6)cc5)cnc34)ccnc2c1 | 6 |
| Nc1cccc2c1CN(C1CCC(=O)NC1=O)C2=O (configuration not stated) | 96 |

[A] NC(=O)c1cc(-c2ccnc(NC3CCCCC3)c2)nc(N2CCNCC2)c1
[B] COc1cc(O)c2c(c1)/C=C/C[C@H](O)[C@H](O)C(=O)/C=C\C[C@H](C)OC2=O
Please compare: A and B . Report which one has the smaller residual activity value. Response format: the label of the selected entry.
B

----------
subject.of.test: DYRK2 (human)
protocol.details: radiometric filter-binding kinase assay
condition: compound 10.0 µM
parameter.measured: residual activity (%)

Answered examples (5):
| smiles.repr | residual activity, % |
| --- | --- |
| NC1(c2ccc(-c3nc4ccn5c(=O)[nH]nc5c4cc3-c3ccccc3)cc2)CCC1 | 87 |
| CCn1c(-c2nonc2N)nc2cncc(CNC3CCNCC3)c21 | 53 |
| FC(F)(F)c1ccc(-c2ccc(Oc3cncc4sc(-c5nn[nH]n5)cc34)cc2)cc1 | 3 |
| N#Cc1c(O)c2c(-c3ccc(-c4ccccc4O)cc3)csc2[nH]c1=O | 63 |
| COc1cc2ncn(-c3cc(OCc4ccccc4S(C)(=O)=O)c(C#N)s3)c2cc1OC | 72 |

[P] CCOC(=O)c1ccc(N2NC(=O)/C(=C/c3ccc([N+](=O)[O-])o3)C2=O)cc1
[Q] COc1cc(C(=O)N2CCOCC2)c(F)cc1Nc1ncc(C(F)(F)F)c(NC2CC2)n1
[R] NS(=O)(=O)OC[C@@H]1C[C@@H](n2ccc3c(N[C@H]4CCc5ccccc54)ncnc32)C[C@@H]1O
Rank descending by residual activity. Would you mind listing the labels in the order requested?
R, P, Q
(R: 92%, P: 54%, Q: 9%)

----------
subject.of.test: SIK3 (human) (UniProt Q9Y2K2)
Sequence (Q9Y2K2 whole entry, looked up): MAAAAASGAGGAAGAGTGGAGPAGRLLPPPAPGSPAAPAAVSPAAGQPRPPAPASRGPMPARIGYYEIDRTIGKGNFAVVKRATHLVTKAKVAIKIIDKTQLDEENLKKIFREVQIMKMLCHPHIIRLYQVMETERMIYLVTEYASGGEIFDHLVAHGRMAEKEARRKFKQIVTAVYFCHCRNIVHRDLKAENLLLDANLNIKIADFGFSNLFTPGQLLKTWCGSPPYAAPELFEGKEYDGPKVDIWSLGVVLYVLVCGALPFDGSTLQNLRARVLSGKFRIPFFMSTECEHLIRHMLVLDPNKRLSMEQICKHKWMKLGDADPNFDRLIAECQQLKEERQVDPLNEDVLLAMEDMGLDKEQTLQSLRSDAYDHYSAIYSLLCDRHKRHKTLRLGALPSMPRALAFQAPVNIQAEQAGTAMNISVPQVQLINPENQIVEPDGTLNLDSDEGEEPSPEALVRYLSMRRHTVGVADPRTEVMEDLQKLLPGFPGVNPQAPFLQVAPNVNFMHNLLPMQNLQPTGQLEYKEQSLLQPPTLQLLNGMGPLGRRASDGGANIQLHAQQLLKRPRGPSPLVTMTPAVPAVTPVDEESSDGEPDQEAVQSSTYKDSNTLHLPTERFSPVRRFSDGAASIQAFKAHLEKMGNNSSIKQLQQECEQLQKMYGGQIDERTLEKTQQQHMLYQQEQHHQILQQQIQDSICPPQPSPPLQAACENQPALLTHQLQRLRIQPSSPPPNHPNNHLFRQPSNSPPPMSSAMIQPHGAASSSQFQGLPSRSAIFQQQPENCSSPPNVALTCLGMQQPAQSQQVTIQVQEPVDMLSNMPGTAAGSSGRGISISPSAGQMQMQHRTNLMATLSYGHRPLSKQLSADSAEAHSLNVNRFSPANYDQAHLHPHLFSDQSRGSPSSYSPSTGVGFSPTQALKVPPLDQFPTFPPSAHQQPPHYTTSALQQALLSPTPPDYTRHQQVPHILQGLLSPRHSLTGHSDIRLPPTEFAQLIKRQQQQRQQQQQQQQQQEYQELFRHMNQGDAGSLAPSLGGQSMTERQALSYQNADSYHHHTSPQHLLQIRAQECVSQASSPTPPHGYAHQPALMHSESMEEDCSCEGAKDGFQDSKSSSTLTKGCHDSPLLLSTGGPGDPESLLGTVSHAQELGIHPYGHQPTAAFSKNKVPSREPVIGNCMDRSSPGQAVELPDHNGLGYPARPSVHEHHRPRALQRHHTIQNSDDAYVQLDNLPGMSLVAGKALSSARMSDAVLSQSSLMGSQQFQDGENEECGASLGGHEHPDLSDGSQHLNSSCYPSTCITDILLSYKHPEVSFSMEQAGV
protocol.details: radiometric filter-binding kinase assay
condition: compound 1.0 µM
parameter.measured: residual activity (%)

| compound | subject.of.test | residual activity (%) |
| --- | --- | --- |
| NCC(=O)Nc1ccc(-n2nc(C(F)(F)F)cc2-c2ccc3c(ccc4ccccc43)c2)cc1 | SIK3 (human) (UniProt Q9Y2K2) | 91 |
| COc1cc(O)c2c(c1)[C@H]1OC1C[C@H](O)[C@H](O)C(=O)/C=C\C[C@H](C)OC2=O (stereo partly drawn) | SIK3 (human) (UniProt Q9Y2K2) | 94 |

[A] CNC(=O)C1[C@H]2O[C@@](C)([C@@H]1N)n1c3ccccc3c3c4c(c5c6ccccc6n2c5c31)C(=O)NC4 (stereo partly drawn)
[B] CCNc1nc(Nc2cc(F)c(C(=O)N3CCOCC3)cc2OC)ncc1C(F)(F)F
Which gives the smaller residual activity number: A or B ? Label of pick, please.
A

----------
subject.of.test: PAK6 (human)
protocol.details: radiometric filter-binding kinase assay
condition: compound 10.0 µM
parameter.measured: residual activity (%)

| molecule | subject.of.test | parameter.measured | result |
| --- | --- | --- | --- |
| CC(C)C[C@H](NC(=O)CNC(=O)c1cc(Cl)ccc1Cl)B1OC(=O)CC(CC(=O)O)(C(=O)O)O1 (stereo partly specified) | PAK6 (human) | residual activity | 68 |
| NC1(c2ccc(-c3nc4ccn5c(=O)[nH]nc5c4cc3-c3ccccc3)cc2)CCC1 | PAK6 (human) | residual activity | 91 |
| Nc1cccc2c1CN(C1CCC(=O)NC1=O)C2=O (stereo unspecified) | PAK6 (human) | residual activity | 104 |
| NC(=O)c1c(NC(=O)C2CC2)sc2c1CCCC2 | PAK6 (human) | residual activity | 80 |
| O=S(=O)(c1ccc(F)c2nonc12)N1CCN(c2ncc(C(F)(F)F)cc2Cl)CC1 | PAK6 (human) | residual activity | 109 |
| Cc1ccc(=O)n(-c2ccccc2)c1 | PAK6 (human) | residual activity | 96 |
